Reported z-score values are given for each entry in this list.
Test target: NADPH oxidase 4 (Homo sapiens) (UniProt Q9NPH5)
Sequence (Q9NPH5 whole entry, looked up): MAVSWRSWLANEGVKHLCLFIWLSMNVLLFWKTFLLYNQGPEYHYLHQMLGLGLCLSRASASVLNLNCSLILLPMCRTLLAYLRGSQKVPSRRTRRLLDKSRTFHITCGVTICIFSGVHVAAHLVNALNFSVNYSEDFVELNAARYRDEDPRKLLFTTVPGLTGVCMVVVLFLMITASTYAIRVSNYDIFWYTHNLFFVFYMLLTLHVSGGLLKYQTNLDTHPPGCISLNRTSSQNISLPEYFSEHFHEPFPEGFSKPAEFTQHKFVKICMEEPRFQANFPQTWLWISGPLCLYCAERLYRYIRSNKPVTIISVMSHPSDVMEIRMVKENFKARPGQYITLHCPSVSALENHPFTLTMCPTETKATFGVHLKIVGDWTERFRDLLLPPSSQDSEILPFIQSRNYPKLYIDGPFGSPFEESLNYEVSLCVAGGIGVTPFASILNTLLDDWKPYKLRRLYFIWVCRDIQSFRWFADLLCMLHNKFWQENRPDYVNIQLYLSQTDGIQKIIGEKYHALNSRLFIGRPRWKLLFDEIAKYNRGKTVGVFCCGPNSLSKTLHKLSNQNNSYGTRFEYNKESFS
Assay notes: NOX4-dependent H2O2 signal modulators, primary screen, NOX inhibitor project, cell-based, HEK293-NOX4, tetracycline-induced, Amplex Red fluorescence (AID 1160)
Conditions: 45 min, higher = more signal, called active from +8 up or from −8 down
Form: value (number only, do not type unit).

Here's what some known entries look like.
[[record]]
compound = "CC(C)C(=C=CC[C@H](O)c1cccc(OCCO)c1)C[C@H](O)c1ccccn1"
test_target = "NADPH oxidase 4 (Homo sapiens) (UniProt Q9NPH5)"
quantity_measured = "z-score"
assay_value = 0.362

[[record]]
compound = "O=C/C=C/c1ccc(-c2ccccc2)cc1"
test_target = "NADPH oxidase 4 (Homo sapiens) (UniProt Q9NPH5)"
quantity_measured = "z-score"
assay_value = -1.85

[[record]]
compound = "C[C@]1(C(=O)NCC(F)(F)F)c2ccccc2C(=O)N(Cc2cc(C(F)(F)F)cc(C(F)(F)F)c2)[C@H]1c1ccc(CO)cc1"
test_target = "NADPH oxidase 4 (Homo sapiens) (UniProt Q9NPH5)"
quantity_measured = "z-score"
assay_value = 0.565

[[record]]
compound = "O=C(CS)NCCCCCCNC(=O)[C@H]1C[C@H]2C(=O)NCC(=O)N2[C@H]1c1cccc(OCCO)c1"
test_target = "NADPH oxidase 4 (Homo sapiens) (UniProt Q9NPH5)"
quantity_measured = "z-score"
assay_value = 1.22

[[record]]
compound = "COc1ccc(C(=O)Nc2ccc(CN3C(=O)[C@]4(O[C@H](CC(=O)N(CCO)Cc5ccccc5)[C@@H]([Si](C)(C)c5ccc(OC)cc5)[C@@H]4C)c4ccccc43)cc2)cc1"
test_target = "NADPH oxidase 4 (Homo sapiens) (UniProt Q9NPH5)"
quantity_measured = "z-score"
assay_value = 0.801


**Query** Report its z-score with NADPH oxidase 4 (Homo sapiens) (UniProt Q9NPH5) as the test system: [N-]=[N+]=NCc1ccccc1[C@H]1OC(c2ccc(OCCCO)cc2)=N[C@@]1(CCS(=O)(=O)c1ccccc1)C(=O)O
**Result** 1.09

**Query** Report its z-score with NADPH oxidase 4 (Homo sapiens) (UniProt Q9NPH5) as the test system: COC(=O)C1(CC(C)C)C=C2C(=C(C)C(=O)C2C)CN1 (stereo not drawn)
**Result** -1.51

**Query** Report its z-score with NADPH oxidase 4 (Homo sapiens) (UniProt Q9NPH5) as the test system: CC(CO)N1C(=O)[C@@H]2[C@H]3C(=O)OCC=C[C@H]3OC23C=CCN(c2ccc4ccccc4c2)C(=O)[C@@H]13 (stereo partly drawn)
**Result** 0.512

---

Assay notes: small-molecule microarray binders of probe aEGFR, primary screen, biochemical, biotinylated probe, 635/667 nm fluorescence (AID 1097);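 note: probe is a biotinylated anti-EGFR antibody binding compounds printed on slides; score combines fluorescence near 667 nm and signal to noise of each spot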
Conditions: higher = more signal
Quantity measured: composite z-score
Form: value (number only, do not type unit).

[[record]]
compound = "CC(=O)NCCCC[C@@H]1NC(=O)[C@H]2C[C@@H](C(=O)NCCCCCN)[C@@H](c3ccc(O)cc3)N2C1=O"
assay_value = 0.0209


**Query** Fill in reported composite z-score for this entry: CC(C)(C)OC(=O)N1[C@@H](C=C(Br)Br)COC1(C)C
**Result** -0.0954

**Query** Fill in reported composite z-score for this entry: CCCCC(=C=CC[C@@H](O)c1ccc(OCCO)cc1)CCO
**Result** -0.333

**Query** Fill in reported composite z-score for this entry: CN1C(=O)C2C=CC(C(O)c3cccs3)N(N(c3ccccc3)c3ccccc3)C2C1=O (stereo not given)
**Result** -0.17

**Query** Fill in reported composite z-score for this entry: COCCOC(=O)N1C(=O)[C@@]2(c3cc(C#CCNC(N)=O)ccc31)[C@H](c1ccccc1OCCO)N1[C@H](c3ccccc3)[C@H](c3ccccc3)OC(=O)[C@H]1[C@@H]2C(=O)N1CCCCCCC1
**Result** -0.0121
